Numbers sourced from ChEMBL document CHEMBL5726044.

TARGET SYSTEM: RAC-beta serine/threonine-protein kinase (Homo sapiens, UniProt P31751)
Sequence (P31751 whole entry): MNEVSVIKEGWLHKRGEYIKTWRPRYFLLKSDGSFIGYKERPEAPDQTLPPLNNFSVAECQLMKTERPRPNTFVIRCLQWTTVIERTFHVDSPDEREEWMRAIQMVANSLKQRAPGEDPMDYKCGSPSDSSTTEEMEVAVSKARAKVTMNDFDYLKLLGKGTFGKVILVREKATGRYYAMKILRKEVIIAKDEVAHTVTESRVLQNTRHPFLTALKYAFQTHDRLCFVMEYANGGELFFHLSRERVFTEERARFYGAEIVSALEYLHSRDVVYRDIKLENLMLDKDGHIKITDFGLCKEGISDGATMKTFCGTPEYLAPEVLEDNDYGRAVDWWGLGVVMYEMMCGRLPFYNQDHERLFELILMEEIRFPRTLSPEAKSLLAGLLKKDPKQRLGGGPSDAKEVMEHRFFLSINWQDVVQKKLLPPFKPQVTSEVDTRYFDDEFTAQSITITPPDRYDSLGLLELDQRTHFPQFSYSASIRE
EXPERIMENTAL DETAILS: Kinase Assay: His-tagged human recombinant kinase full-length Akt2 expressed in insect cells and activated by PDK1 was purchased form Invitrogen (part number PV 3975). As substrate for the kinase reaction the biotinylated peptide biotin-Ahx-[…] (C-terminus in amide form) was used which can be purchased e.g. from the company Biosynthan GmbH (Berlin-Buch, Germany). For the assay 50 nl of a 100 fold concentrated solution of the test compound in DMSO was pipetted into a black low volume 384 well microtiter plate (Greiner Bio-One, Frickenhausen, Germany), 2 μl of a solution of Akt2 in assay buffer [50 mM TRIS/HCl pH 7.5, 5 mM MgCl2, 1 mM dithiothreitol, 0.02% (v/v) Triton X-100 (Sigma)] were added and the mixture was incubated for 15 min at 22° C. to allow pre-binding of the test compounds to the enzyme before the start of the kinase reaction. Then the kinase reaction was started by the addition of 3 μl of a solution of adenosine-tri-phosphate (ATP, 16.7 μM=>final conc. in the 5 μl assay volume is 10 μM) and substrate (1.67 μM=>final conc. in the 5 μl assay volume is 1 μM) in assay buffer and the resulting mixture was incubated for a reaction time of 60 min at 22° C. The concentration of Akt2 in the assay was adjusted depending of the activity of the enzyme lot and was chosen appropriate to have the assay in the linear range, typical enzyme concentrations were in the range of about 0.2 ng/μl (final conc. in the 5 μl assay volume). The reaction was stopped by the addition of 5 μl of a solution of HTRF detection reagents (200 nM streptavidine-XL665 [Cisbio] and 1.5 nM anti-phosho-Serine antibody [Millipore, cat. #35-001] and 0.75 nM LANCE Eu-W 1024 labeled anti-mouse IgG antibody [Perkin Elmer]) in an aqueous EDTA-solution (100 mM EDTA, 0.1% (w/v) bovine serum albumin in 50 mM HEPES/NaOH pH 7.5). The resulting mixture was incubated 1 h at 22° C. to allow the binding of the biotinylated phosphorylated peptide to the streptavidine-XL665 and the antibodies.
PROPERTY MEASURED: pIC50
Quick note: pIC50 values are minus log10 of concentrations in mol/L.

- SMILES STRING: "NC1(c2ccc(-c3nc4ccc(C(F)(F)F)nn4c3-c3ccccc3)cc2)CCC1"
  pIC50: 7.15

Entry `NC(=O)c1ccnn2c(-c3ccccc3)c(-c3ccc(C4(N)CCC4)cc3)nc12` — recorded pIC50 = 6.96

Entry `CCOc1nn2c(-c3ccccc3)c(-c3ccc(C4(N)CCC4)cc3)nc2c(C)c1C` — recorded pIC50 = 7.25
